- Assayed System: human TLR8 (Homo sapiens)
- Sequence (Q9NR97 27-1041): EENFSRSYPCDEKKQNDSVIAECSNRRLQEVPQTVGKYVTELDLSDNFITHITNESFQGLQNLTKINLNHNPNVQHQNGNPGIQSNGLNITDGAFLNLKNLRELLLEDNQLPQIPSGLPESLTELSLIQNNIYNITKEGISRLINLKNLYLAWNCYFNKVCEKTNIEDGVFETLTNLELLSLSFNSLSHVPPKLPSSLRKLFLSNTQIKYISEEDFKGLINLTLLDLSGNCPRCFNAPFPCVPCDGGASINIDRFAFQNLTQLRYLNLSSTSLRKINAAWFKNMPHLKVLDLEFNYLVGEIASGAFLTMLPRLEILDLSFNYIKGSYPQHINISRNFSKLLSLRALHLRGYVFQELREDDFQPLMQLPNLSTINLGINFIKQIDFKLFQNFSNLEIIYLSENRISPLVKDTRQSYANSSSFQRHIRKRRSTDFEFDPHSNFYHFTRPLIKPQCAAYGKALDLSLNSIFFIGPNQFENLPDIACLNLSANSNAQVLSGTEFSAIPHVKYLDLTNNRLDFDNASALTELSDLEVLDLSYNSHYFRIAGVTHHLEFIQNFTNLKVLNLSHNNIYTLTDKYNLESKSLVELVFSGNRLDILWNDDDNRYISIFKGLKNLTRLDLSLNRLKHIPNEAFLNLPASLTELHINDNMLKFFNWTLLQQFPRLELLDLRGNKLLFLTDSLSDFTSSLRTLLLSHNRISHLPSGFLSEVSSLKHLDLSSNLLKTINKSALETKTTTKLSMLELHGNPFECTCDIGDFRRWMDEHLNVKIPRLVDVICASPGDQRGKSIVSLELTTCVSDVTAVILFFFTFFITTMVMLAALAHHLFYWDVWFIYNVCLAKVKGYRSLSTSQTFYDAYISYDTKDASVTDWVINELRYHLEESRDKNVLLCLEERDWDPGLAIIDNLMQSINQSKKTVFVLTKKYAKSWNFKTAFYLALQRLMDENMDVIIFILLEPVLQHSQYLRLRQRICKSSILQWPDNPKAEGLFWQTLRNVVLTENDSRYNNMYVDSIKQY
- Test: TLR8 inhibition reporter assay (HEK-Blue cells, SEAP reporter, R848 stimulation)
- Experimental Setup: HEK-Blue cells overexpressing human TLR8, SEAP reporter, R848 15.9 μM
pIC50: −log10 of the molar value.
Measurement Label: pIC50

Sample records with pIC50:
1. CNC(=O)CN1CCC(c2ccc3[nH]c(-c4cc(C)c5nc(C)c(C)n5c4)c(C(C)C)c3c2)CC1 | 6.00 to 7.00
2. CNC(=O)CN1CCC(c2ccc3[nH]c(-c4cnc5nn(C)cc5c4)c(C(C)C)c3c2)CC1 | < 5.51
3. CC(C)c1c(-c2cc(C(C)C)c3nccn3c2)[nH]c2ccc(C3CCNCC3)cc12 | 6.00 to 7.00
4. CNC(=O)CN1CCC(c2ccc3[nH]c(-c4ccn5nccc5c4)c(C(C)C)c3c2)CC1 | > 7.00
5. COCCN1CCC(c2ccc3[nH]c(-c4cc(C)n5ncnc5c4)c(C(C)C)c3c2)CC1 | > 7.00

Task: So what does the record say about pIC50 for Cc1ccc(-c2[nH]c3ccc(C4CCN(CC(=O)N(C)C)CC4)cc3c2C(C)C)c2ncnn12 ?
Output: > 7.00

Task: Then what about the compound CCc1c(-c2ccnc3[nH]cc(CC)c23)[nH]c2ccc(C3CCNCC3)cc12 ?
Output: 6.00 to 7.00

Task: Then what about the compound CC(C)c1c(-c2ccnc3c2NC(=O)CO3)[nH]c2ccc(C3CCNCC3)cc12 ?
Output: 4.30 to 6.00

Task: Then what about the compound Cc1cc(-c2[nH]c3ccc(C4CCNCC4)cc3c2C(C)C)c2[nH]c(C)cc2n1 ?
Output: 4.30 to 6.00

Task: Then what about the compound Cc1nc2cc(-c3[nH]c4ccc(C5CCN(C(=O)CC(C)(C)O)CC5)cc4c3C(C)C)ccn2n1 ?
Output: < 5.51

Task: Then what about the compound Cc1c(-c2ccnc3[nH]ccc23)[nH]c2ccc(C3CCN(C4CCN(CC(C)C)CC4)CC3)cc12 ?
Output: > 7.00

Task: Then what about the compound CC(C)c1c(-c2ccc(C#N)c3ncccc23)[nH]c2ccc(C3CCN(CC(=O)N(C)C)CC3)cc12 ?
Output: > 7.00

Task: Then what about the compound Cc1cc(-c2[nH]c3ccc(C4CCN(CCCC(F)(F)F)CC4)cc3c2C(C)C)cn2nncc12 ?
Output: 6.00 to 7.00

Task: Then what about the compound Cc1cnc2[nH]ccc2c1-c1[nH]c2ccc(C3CCNCC3)cc2c1C(C)C ?
Output: > 7.00

Task: Then what about the compound CNC(=O)CN1CCC(c2ccc3[nH]c(-c4cc(C)c5c(cnn5C)c4)c(C(C)C)c3c2)CC1 ?
Output: < 5.51

Task: Then what about the compound COc1cc(-c2[nH]c3ccc(C4CCN(C(=O)CN(C)C)CC4)cc3c2C(C)C)cc2nccn12 ?
Output: 6.00 to 7.00

Task: Then what about the compound Cc1cc(-c2[nH]c3ccc(C4CCN(C5COC5)CC4)cc3c2C(C)C)cc2[nH]c(=O)oc12 ?
Output: 6.00 to 7.00

Task: Then what about the compound CC(C)c1c(-c2ccc3nccn3c2)[nH]c2ccc(C3CCN(C(C)C)CC3)cc12 ?
Output: > 7.00
